Target or system: Sa-ClpP (Staphylococcus aureus, UniProt Q2G036)
Construct: made in house; host or cells: E. coli BL21(DE3)
Sequence (Q2G036 1-195): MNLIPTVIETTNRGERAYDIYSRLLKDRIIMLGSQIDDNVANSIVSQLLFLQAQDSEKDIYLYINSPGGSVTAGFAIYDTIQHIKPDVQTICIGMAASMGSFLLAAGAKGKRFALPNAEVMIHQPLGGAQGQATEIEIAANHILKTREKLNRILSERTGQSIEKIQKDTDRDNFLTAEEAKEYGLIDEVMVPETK
Procedure text: Sa-ClpP casein-BODIPY ClpP activation assay, method variant not marked in Table 5
Type: biochemical, S. aureus
*1 amine or outer side, *2 acyl side, *3 side chain or, on linkers, in order; H or OH if unused. Where a SMILES comes first, the peptide text is derived from it. Bridges are numbered along the chain shown (N, C = ends). [ ]: non-standard residue; d: D form. The star is where a group is joined. Phe(3,5-F2) = N[C@@H](Cc1cc(F)cc(F)c1)C(=O)O; Morpholine(3S-CO) = O=C(O)[C@@H]1COCCN1; NH(4-Cl-2-F-phenyl) = Fc1cc(Cl)ccc1N*; Pro(4R-Me) = C[C@H]1CN[C@H](C(=O)O)C1; Hyp = O=C(O)[C@@H]1C[C@@H](O)CN1; aThr = C[C@H](O)[C@H](N)C(=O)O; X1 = N#Cc1cc(N*)ccc1F; CO = O=C([*:1])[*:2]
Result type: pEC50
# pEC50 is unitless: minus log10 of the molar concentration; print number only

C[C@@H]1C[C@H]2C(=O)O[C@@H](C)[C@H](NC(=O)[C@H](Cc3cc(F)cc(F)c3)NC(=O)Nc3ccc(Cl)cc3F)C(=O)N3CCC[C@H]3C(=O)N3CCOC[C@H]3C(=O)N[C@@H](C)C(=O)N2C1 [Compound 314] ({NH(4-Cl-2-F-phenyl)-CO}-[Phe(3,5-F2)][aThr]P[Morpholine(3S-CO)]A[Pro(4R-Me)]; ester 2-C)
6.40

Provide one value: measured pEC50 of C[C@@H]1C[C@H]2C(=O)O[C@@H](C)[C@H](NC(=O)[C@H](Cc3cc(F)cc(F)c3)NC(=O)Nc3ccc(F)c(C#N)c3)C(=O)N3C[C@H](O)C[C@H]3C(=O)N3CCOC[C@H]3C(=O)N[C@@H](C)C(=O)N2C1 [Compound 326] ({X1-CO}-[Phe(3,5-F2)][aThr][Hyp][Morpholine(3S-CO)]A[Pro(4R-Me)]; ester 2-C)
6.34

* * *

Test system: Streptococcus pneumoniae, R6
Procedure text: Minimal inhibitory concentration assay
Format: cell-based
Protocol conditions: read-out: Minimal Inhibitory Concentrations S. pneumoniae R6
*1 amine or outer side, *2 acyl side, *3 side chain or, on linkers, in order; H or OH if unused. Where a SMILES comes first, the peptide text is derived from it. Bridges are numbered along the chain shown (N, C = ends). [ ]: non-standard residue; d: D form. The star is where a group is joined. ξ: configuration not given here. Phe(3,5-F2) = N[C@@H](Cc1cc(F)cc(F)c1)C(=O)O; NH(1-Me-indolin-5-yl) = CN1CCc2cc(N*)ccc21; Morpholine(3S-CO) = O=C(O)[C@@H]1COCCN1; Pro(4S-Me) = C[C@@H]1CN[C@H](C(=O)O)C1; Pro(4R-Me) = C[C@H]1CN[C@H](C(=O)O)C1; X10 = O=C(C1C[C@H](F)CN1[*:1])[*:2]; X9 = CC1(C)CC(C(=O)[*:2])N([*:1])C1; NHPh(4-CF3) = FC(F)(F)c1ccc(N*)cc1; Hyp = O=C(O)[C@@H]1C[C@@H](O)CN1; NH(4-Me-phenyl) = Cc1ccc(N*)cc1; aThr = C[C@H](O)[C@H](N)C(=O)O; Pip = O=C(O)[C@@H]1CCCCN1; ξPip = O=C(O)C1CCCCN1; CO = O=C([*:1])[*:2]; ξP = O=C(O)C1CCCN1
Result type: MIC (µM)
Please give a number only; it is taken to be in µM.

Before answering, review these 4 worked examples.
Cc1ccc(NC(=O)N[C@@H](Cc2cc(F)cc(F)c2)C(=O)N[C@H]2COC(=O)C3C[C@H](C)CN3C(=O)[C@H](C)NC(=O)C3CCCCN3C(=O)C3CCCN3C2=O)cc1C (stereo partly shown)
0.8
C[C@H]1C[C@H]2C(=O)O[C@@H](C)[C@H](NC(=O)[C@H](Cc3cc(F)cc(F)c3)NC(=O)Nc3ccc(C(F)(F)F)cc3)C(=O)N3CCC[C@H]3C(=O)N3CCCC[C@H]3C(=O)N[C@@H](C)C(=O)N2C1 [Compound 19] ({NHPh(4-CF3)-CO}-[Phe(3,5-F2)][aThr]P[Pip]A[Pro(4S-Me)]; ester 2-C)
0.8
C[C@@H]1C[C@H]2C(=O)O[C@@H](C)[C@H](NC(=O)[C@H](Cc3cc(F)cc(F)c3)NC(=O)Nc3ccc4c(c3)CCN4C)C(=O)N3C[C@H](O)C[C@H]3C(=O)N3CCOC[C@H]3C(=O)N[C@@H](C)C(=O)N2C1 [Compound 315] ({NH(1-Me-indolin-5-yl)-CO}-[Phe(3,5-F2)][aThr][Hyp][Morpholine(3S-CO)]A[Pro(4R-Me)]; ester 2-C)
0.313
Cc1ccc(NC(=O)N[C@@H](Cc2cc(F)cc(F)c2)C(=O)N[C@H]2COC(=O)C3C[C@H](F)CN3C(=O)[C@H](C)NC(=O)C3CCCCN3C(=O)C3CCCN3C2=O)cc1 (stereo partly shown) [Compound 50] ({NH(4-Me-phenyl)-CO}-[Phe(3,5-F2)]S[ξP][ξPip]A[X10]; ester 2-C)
0.8

Please look at this molecule and report its MIC: Cc1ccc(NC(=O)N[C@@H](Cc2cc(F)cc(F)c2)C(=O)N[C@H]2COC(=O)C3CC(C)(C)CN3C(=O)[C@H](C)NC(=O)C3CCCCN3C(=O)C3CCCN3C2=O)cc1 (stereo partly shown) [Compound 49] ({NH(4-Me-phenyl)-CO}-[Phe(3,5-F2)]S[ξP][ξPip]A[X9]; ester 2-C)
6.3

The reported measurements were obtained from patent US10457707B2.
